experimental.target: Full length human CD40 (huCD40) on cells (human, UniProt P25942 21-277)
Sequence (P25942 21-277): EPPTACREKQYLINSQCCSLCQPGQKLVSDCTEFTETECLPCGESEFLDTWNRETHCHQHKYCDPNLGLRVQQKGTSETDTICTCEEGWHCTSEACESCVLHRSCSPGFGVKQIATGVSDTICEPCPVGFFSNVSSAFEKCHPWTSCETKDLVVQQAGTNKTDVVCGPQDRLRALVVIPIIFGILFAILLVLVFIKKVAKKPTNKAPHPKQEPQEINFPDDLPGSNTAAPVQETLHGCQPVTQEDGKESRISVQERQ
test.name: cell-based or functional assay
reported.property: B cells EC50, CD80 surface expression, with cross-linker (ng/mL)
Give bare numbers, in ng/mL.

Answer for every listed entry: what is its B cells EC50, CD80 surface expression, with cross-linker? The entries follow.
1. C40M9 (antibody, human IgG1, lambda, V domains shown) VH: QLQLQESGPGLVKPSEILSLTCTVSGGSISSSSYYWGWIRQPPGKGLEWIGNIYYRGDTYYSPSLKSRVTISVDTSKNQFSLKLNSVTAADTAVYYCAKGFRFDYWGQGTLVTVSS VL: QSALTQPPSASGSPGQSVTISCTGTSSDVGGYNYVSWYQQHPGKAPKLMIYEVSKRPSGVPDRFSGSKSGNTASLTVSGLQAEDEADYYCSSYAGSNNLVFGGGTKLTVLG
2. C40M18 (antibody, human IgG1, lambda, V domains shown, Full-length IgG1/lambda; from OmniRat (OMT); VH C40H48, VL C40L64) VH: EVQLVESGGGLVQPGGSLRLSCAASGFTFSSYAMSWVRQAPGKGLEWVSIINNNVGRTYYADSVKGRFTISRDNSKNTLYLQMNSLRAEDTAVYYCAKEGGDYYYYGMDVWGQGTTVTVSS VL: SYELTQPPSVSVSPGQTASITCSGDKLGDKYVCWYQQKPGQSPVVVIYQDSKRPSGIPERFSGSNSGNTATLTISGTQAMDEAYYYCQAWVSSTVVFGGGTKLTVLG
3. C40M67 (antibody, human IgG1, kappa, V domains shown, Full-length IgG1/kappa; from phage display) VH: EVQLLESGGGLVQPGGSLRLSCAASGFTFSDYAMNWVRQAPGKGLEWVSGIKSGGSSKYYADSVKGRFTISRDNSKNTLYLQMNSLRAEDTAVYYCAKHVDFYRALDYWGQGTLVTVSS VL: EIVLTQSPGTLSLSPGERATLSCRASQSVKNSSLAWYQQKPGQAPRLLIYTASSRATGIPDRFSGSGSGTDFTLTISRLEPEDFAVYYCQQSSAPPWTFGQGTKVEIKR
4. C40M12 (antibody, human IgG1, lambda, V domains shown, Full-length IgG1/lambda; from OmniRat (OMT)) VH: EVQLVESGGGLVQPGGSLRLSCAASGFTFGSYAMSWVRQAPGKGLEWVSVISDSGGRTYYADSVKGRFTISRDYSKNTLYLQMNSLRAEDTAVYYCAKEGGDYYYYGMDVWGQGTTVTVSS VL: SYELTQPPSVSVSPGQTASIICSGDKLGDKYVCWYQQKPGQSPVVVIYHDNKRPSGIPERFSGSNSGNTATLTISGTQAMDEADYYCQVWDSSTVVFGGGTKLTVLG

Resp:
1. 13.1
2. 48.1
3. 3.32
4. 6.23
